Entry source: patent US20220056104A1

- Measured target: T1, Recombinant DR3-Fc (R&D Systems, cat. #943-D3) (UniProt Q93038 25-199, limits assumed)
- T1 construct: dimeric MW~92 kDa; also called DR3 receptor; Fc-DR3; not shown: Fc part of the bought fusion
- T1 sequence (looked up): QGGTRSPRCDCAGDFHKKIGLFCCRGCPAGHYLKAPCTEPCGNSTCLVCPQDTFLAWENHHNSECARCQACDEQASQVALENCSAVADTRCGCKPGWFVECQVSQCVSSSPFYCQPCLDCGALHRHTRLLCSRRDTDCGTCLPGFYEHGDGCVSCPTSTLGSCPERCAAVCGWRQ
- Experiment notes: ELISA, DR3-Fc immobilized
pEC50: −log10 of the molar value.
Result type: pEC50

Binder	Readout number
TL1W32 (His-TEV-hTL1A 72-251 Y188A) (ligand, also called TL1W32 (Y188A)) HHHHHHENLYFQGLKGQEFAPSHQQVYAPLRADGDKPRAHLTVVRQTPTQHFKNQFPALHWEHELGLAFTKNRMNYTNKFLLIPESGDYFIYSQVTFRGMTSECSEIRQAGRPNKPDSITVVITKVTDSAPEPTQLLMGTKSVCEVGSNWFQPIYLGAMFSLQEGDKLMVNVSDISLVDYTKEDKTFFGAFLL	6.25
TL1W33 (His-TEV-hTL1A 72-251 R103A) (ligand, also called TL1W33 (R103A)) HHHHHHENLYFQGLKGQEFAPSHQQVYAPLRADGDKPRAHLTVVAQTPTQHFKNQFPALHWEHELGLAFTKNRMNYTNKFLLIPESGDYFIYSQVTFRGMTSECSEIRQAGRPNKPDSITVVITKVTDSYPEPTQLLMGTKSVCEVGSNWFQPIYLGAMFSLQEGDKLMVNVSDISLVDYTKEDKTFFGAFLL	7.60
TL1W99 (His-TEV-TL1A S176A) (ligand, also called TL1W99 (S176A)) HHHHHHENLYFQGLKGQEFAPSHQQVYAPLRADGDKPRAHLTVVRQTPTQHFKNQFPALHWEHELGLAFTKNRMNYTNKFLLIPESGDYFIYSQVTFRGMTSECSEIRQAGRPNKPDAITVVITKVTDSYPEPTQLLMGTKSVCEVGSNWFQPIYLGAMFSLQEGDKLMVNVSDISLVDYTKEDKTFFGAFLL	7.46
